Test system: SK-MEL-2 melanoma
Assay: NCI-60 one-dose screen, 48 h
Details: 10 µM unless noted
Compounds without any hit were thinned out: in the full panel of roughly 83,000, 20% have a hit. The source made the active and inactive calls. Rule for the calls: active = growth percent below 10; inactive = the rest.
Could you please pick one outcome from this set? active, inactive

# input Would you mind telling me which call this test gave `COC(=O)[C@@H]1CCCN1C(=O)[C@@H]1CCCN1C(=O)[C@@H](Cc1c[nH]c2ccccc12)NC(=S)Nc1cc(C(F)(F)F)cc(C(F)(F)F)c1` ?
# output inactive

# input Would you mind telling me which call this test gave O=C1CN2CCC1C/C2=C\c1ccnc2c(Cl)cccc12 (stereo not given) ?
# output inactive

# input Would you mind telling me which call this test gave `COc1cc(/C=C/C(=O)C(=Cc2ccc(F)c(F)c2)C(=O)/C=C/c2ccc(O)c(OC)c2)ccc1O` ?
# output active

# input Would you mind telling me which call this test gave `NC(=O)c1nc2c([nH]c1=O)CCCC2` ?
# output inactive

# input Would you mind telling me which call this test gave `COc1ccc(Cn2c(Br)c3c(c2-c2cc(OC)c(OC)c(OC)c2)CCc2sc(N)nc2-3)cc1` ?
# output inactive

# input Would you mind telling me which call this test gave `COc1ccc(-c2[nH]ncc2Nc2cc(OC)c(OC)c(OC)c2)cc1` ?
# output inactive

# input Would you mind telling me which call this test gave `CC(C)N1CCN(c2ccc(OC[C@H]3CO[C@](Cn4cncn4)(c4ccc(Cl)cc4Cl)O3)cc2)CC1` ?
# output inactive

# input Would you mind telling me which call this test gave `CSc1ccc(OC(C)=O)cc1C` ?
# output inactive

# input Would you mind telling me which call this test gave O=C1CCC(N2C(=O)c3cccc(NCCOCCOCCNC(=O)c4cc5c(o4)C(=O)c4ccccc4C5=O)c3C2=O)C(=O)N1 (stereo not given) ?
# output active

# input Would you mind telling me which call this test gave `CC(=O)Nc1ccc(S(=O)(=O)N/N=C\c2ccc(Cl)c(Cl)c2)cc1` ?
# output inactive

###

Test system: PC-3 prostate
Assay: NCI-60 one-dose screen, 48 h (100 = growth as untreated, 0 = no growth, -100 = all killed)
Details: 10 µM unless noted
The panel holds about 83,000 compounds, 20% with a hit somewhere; the sample as a whole holds those more often.
Reported growth maps to class as: low: < 60%; mid: ≥ 60% and < 80%; high: ≥ 80%

# input State the class of the molecule shown: `Cc1nc2cc(Nc3nc(Nc4ccc(F)cc4)nc(-c4cccs4)n3)ccc2n1Cc1ccccc1`
# output low

# input State the class of the molecule shown: COc1ccc(OC)c(C2C(C#N)=C(N)Oc3cc(O)ccc32)c1 (stereo not given)
# output high

# input State the class of the molecule shown: `CN1CCN(C)c2cncc(Br)c2C1=O`
# output high

# input State the class of the molecule shown: `COc1ccc(-c2c3c(N)c4c(nc3nc3c2c(C)nn3-c2ccccc2)CCCC4)cc1`
# output mid

# input State the class of the molecule shown: CCC12CCC3c4ccc(O)cc4CCC3C1CC(O)C2O (stereo not given)
# output high

# input State the class of the molecule shown: `CN(C)c1ccc(/C=C(\C#N)c2cc3ccccc3n2C)cc1`
# output low

###

Tested on: EKVX NSCLC
Experiment: NCI-60 one-dose screen, 48 h (100 = growth as untreated, 0 = no growth, -100 = all killed)
Settings: 10 µM unless noted
The panel holds about 83,000 compounds, 20% with a hit somewhere; the sample as a whole holds those more often.
attribute-measured: growth (%)
Please state the figure in %; there is no need to write the unit.

# input Given `NC(=O)c1cccc(-n2ccc3cc(NC(=O)Nc4ccc(Cl)c(Cl)c4)ccc32)n1` , state its recorded growth.
# output 68.3

# input Given `COc1ccc(/C=C(\C#N)c2cc3ccccc3n2C)cc1` , state its recorded growth.
# output 39.1

# input Given `COc1ccc2c(c1)c(=O)oc1c(C)c(OCC(C)=O)ccc12` , state its recorded growth.
# output 4.14

# input Given `OB(O)c1ccccc1` , state its recorded growth.
# output 108

# input Given COc1cc(C2CC(=O)Nc3c2ccc2ccccc32)cc(Br)c1OC (configuration not stated) , state its recorded growth.
# output 38.9

# input Given COc1cccc(C2CC(=O)Nc3cc4c(cc32)OCO4)c1OC (configuration not stated) , state its recorded growth.
# output 110

# input Given `CCOc1ccc(/C=N\N2CCCCCC2)cc1OCC` , state its recorded growth.
# output 76.8

# input Given COc1c(O)c2c3c(c1OC)-c1ccccc1CC3N(S(=O)(=O)c1ccc(C)cc1)CC2 (configuration not stated) , state its recorded growth.
# output 106

# input Given `Cc1ccc2nc(NC(=O)CSC(=S)N3CCN(C)CC3)sc2c1` , state its recorded growth.
# output 98.1

# input Given `Clc1ccc2c(c1)C[C@H]1C[C@@H](c3cccs3)N2O1` , state its recorded growth.
# output 83.2

# input Given `COc1ccc(/C=N\N2CCOCC2)cc1OC1CCCC1` , state its recorded growth.
# output 89.4

# input Given `O=C1N/C(=C\c2ccccc2)c2ncccc21` , state its recorded growth.
# output 93.1
